protocol-notes: Tissue distribution of curcumin and THC at necropsy 15 minutes post-infusion
Parameters: species or system Beagle dogs
condition-notes: both sexes, beagle, dog, in vivo, 10 mg/kg, Kp [tissue]/[plasma], Intestinal Wall, 2 hr infusion; H3PO4 stabilized
measure: Kp at 2 h

>>> val("COc1cc(CCC(=O)CC(=O)CCc2ccc(O)c(OC)c2)ccc1O [THC, tetrahydrocurcumin]")
0.0003

----------
protocol-notes: Tissue distribution of curcumin and THC at necropsy 15 minutes post-infusion
Design: species or system Beagle dogs
condition-notes: both sexes, beagle, dog, in vivo, 10 mg/kg, 8 hr infusion; H3PO4 stabilized; read-out: Kp [tissue]/[plasma], Heart
measure: Kp at 8 h

>>> val("COc1cc(CCC(=O)CC(=O)CCc2ccc(O)c(OC)c2)ccc1O [THC, tetrahydrocurcumin]")
0.0003

----------
protocol-notes: Plasma pharmacokinetics of curcumin and THC during and after intravenous infusion of liposomal curcumin
Format: in vivo, Beagle dogs
condition-notes: both sexes, Beagle, dog, in vivo, 10 mg/kg, 1.25 mg/kg/hr; 6 hr; mean±SE; read-out: [Plasma]
measure: concentration at 6 hr (ng/mL)

>>> val("COc1cc(CCC(=O)CC(=O)CCc2ccc(O)c(OC)c2)ccc1O [THC, tetrahydrocurcumin]")
0

----------
protocol-notes: Tissue distribution of curcumin and THC at necropsy 15 minutes post-infusion
Parameters: species or system Beagle dogs
condition-notes: both sexes, beagle, dog, in vivo, 10 mg/kg, Table 14, 2 hour infusion; +H3PO4; read-out: Tissue analysis, Cortex
measure: concentration at 15 min

>>> val("COc1cc(CCC(=O)CC(=O)CCc2ccc(O)c(OC)c2)ccc1O [THC, tetrahydrocurcumin]")
"3.08 ng/g"

----------
protocol-notes: Tissue distribution of curcumin and THC at necropsy 15 minutes post-infusion
Set-up: species or system Beagle dogs
condition-notes: both sexes, beagle, dog, in vivo, 10 mg/kg, Table 14, 2 hour infusion; +H3PO4; read-out: Tissue analysis, Brainstem
measure: concentration at 15 min (ng/g)

>>> val("COc1cc(CCC(=O)CC(=O)CCc2ccc(O)c(OC)c2)ccc1O [THC, tetrahydrocurcumin]")
10.6

----------
protocol-notes: Tissue distribution of curcumin and THC at necropsy 15 minutes post-infusion
Set-up: species or system Beagle dogs
condition-notes: both sexes, beagle, dog, in vivo, 10 mg/kg, 8 hour infusion; No H3PO4; read-out: Tissue level, Urinary Bladder
Description: The test article will be administered to 8 Beagle dogs by intravenous infusion over two hours (Part A) or eight hours (Part B) as shown in Table 6. Multiple samples of tissue weighing approximately 1 gram were removed and snap frozen in the presence or absence of phosphoric acid (H3PO4). For all tissue samples, the levels of curcumin and THC were determined using a method developed by the Bioanalytical Department at Nucro-Technics. […]
measure: concentration at 15 min

>>> val("COc1cc(CCC(=O)CC(=O)CCc2ccc(O)c(OC)c2)ccc1O [THC, tetrahydrocurcumin]")
"1.37 ng/g"

----------
protocol-notes: Tissue distribution of curcumin and THC at necropsy 15 minutes post-infusion
Design: species or system Beagle dogs
condition-notes: both sexes, beagle, dog, in vivo, 10 mg/kg, 8 hour infusion; Plus H3PO4; read-out: Tissue level, Muscle
measure: concentration at 15 min (ng/g)

>>> val("COc1cc(CCC(=O)CC(=O)CCc2ccc(O)c(OC)c2)ccc1O [THC, tetrahydrocurcumin]")
0.93
